Assay: Particle size distribution of the powder produced by high pressure cavitation (HPC) and spray drying
Format: physicochemical
Settings: dry powder after HPC followed by spray drying
Dv50 values for the compounds below.

- Compound: "CCC(=O)O[C@]1(C(=O)SCF)[C@H](C)C[C@H]2[C@@H]3C[C@H](F)C4=CC(=O)C=C[C@]4(C)[C@@]3(F)[C@@H](O)C[C@@]21C [Fluticasone propionate]"
  Dv50 / μm: 2.45
- Compound: "C[C@@H]1C[C@H]2[C@@H]3C[C@H](F)C4=CC(=O)C=C[C@]4(C)[C@@]3(F)[C@@H](O)C[C@]2(C)[C@@]1(OC(=O)c1ccco1)C(=O)SCF [Fluticasone furoate]"
  Dv50 / μm: 1.95
- Compound: "OCc1cc(C(O)CNCCCCCCOCCCCc2ccccc2)ccc1O (centres unmarked) [Salmeterol xinafoate]"
  Dv50 / μm: 1.37
- Compound: "C[N+]1(C)[C@@H]2C[C@@H](OC(=O)C(O)(c3cccs3)c3cccs3)C[C@H]1[C@@H]1O[C@@H]12 [Tiotropium bromide]"
  Dv50 / μm: 2.90
- Compound: "C[C@@H]1C[C@H]2[C@@H]3CCC4=CC(=O)C=C[C@]4(C)[C@@]3(Cl)[C@@H](O)C[C@]2(C)[C@@]1(OC(=O)c1ccco1)C(=O)CCl [Mometasone furoate monohydrate]"
  Dv50 / μm: 3.97
